- TARGET DESC: human LTBR on cells (human, UniProt P36941 31-435)
- ASSAY PROCEDURE: cell-based or functional assay
RESULT TYPE: NFκB luc, 15000 ng/ml, w/o x linker (RLU)
Please respond with the number in RLU and leave the unit unwritten.

Task: Please look up its NFκB luc, 15000 ng/ml, w/o x linker: P1AF0064 (antibody, human IgG1, kappa, L234A L235A, V domains shown, human IgG1 PG LALA constant regions; V domains from rat immunization; also called LTBR (0064)) VH: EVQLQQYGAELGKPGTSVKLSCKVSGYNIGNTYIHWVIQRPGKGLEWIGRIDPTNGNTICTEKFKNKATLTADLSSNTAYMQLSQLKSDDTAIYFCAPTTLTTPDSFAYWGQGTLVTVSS VL: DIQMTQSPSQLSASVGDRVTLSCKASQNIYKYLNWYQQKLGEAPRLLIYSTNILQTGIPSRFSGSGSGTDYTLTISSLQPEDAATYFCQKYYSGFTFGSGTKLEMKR
Result: 26000
